test: Solubility in fasted-state simulated colonic fluid (FaSSCoF) at pH 6.5; type: physicochemical; details: 25 °C, pH 6.5, fassgf or other biorelevant, thermodynamic from solid, pH 6.5 FaSSCoF Solubility (mg/mL) Run 2
Counter-ions that a name gives are not always drawn.
property measured: solubility thermodynamic at 24 h (µg/mL)
I only need the number, in µg/mL, no unit after it.

The measured solubility thermodynamic at 24 h associated with `COc1cc(Nc2cc(Oc3ccc(NC(=O)Nc4cc(C(C)(C)C)cc(NS(C)(=O)=O)c4OC)c4ccccc34)ccn2)ccc1C(=O)NCCO` reads 6

The molecule identified as `COc1cc(Nc2cc(Oc3ccc(NC(=O)Nc4cc(C(C)(C)C)cc(NS(C)(=O)=O)c4OC)c4ccccc34)ccn2)ccc1S(=O)(=O)CC(CO)(CO)CO` registered its solubility thermodynamic at 24 h at 5

Entry `COc1cc(Nc2cc(Oc3ccc(NC(=O)Nc4cc(C(C)(C)C)cc(NS(C)(=O)=O)c4OC)c4ccccc34)ccn2)ccc1C(=O)NCCOCCOCCC(=O)O` — recorded solubility thermodynamic at 24 h = 9

For COc1cc(Nc2cc(Oc3ccc(NC(=O)Nc4cc(C(C)(C)C)cc(NS(C)(=O)=O)c4OC)c4ccccc34)ccn2)ccc1C(=O)NCCC(=O)O [17(ay) (hydrochloride salt)] the molecule record lists solubility thermodynamic at 24 h as 28

molecule `COc1cc(Nc2cc(Oc3ccc(NC(=O)Nc4cc(C(C)(C)C)cc(NS(C)(=O)=O)c4OC)c4ccccc34)ccn2)ccc1C(=O)NCCCN1CCOCC1` , solubility thermodynamic at 24 h observed: 15

Record `COc1cc(Nc2cc(Oc3ccc(NC(=O)Nc4cc(C(C)(C)C)cc(NS(C)(=O)=O)c4OC)c4ccccc34)ccn2)ccc1C(=O)NCCN1CCN(C(C)C)CC1` , field solubility thermodynamic at 24 h: 15

---

Quick record: pIC50, GSK 3α (Homo sapiens (Human), UniProt P49840).
For clarity, pIC50 is expressed as the negative log10 of concentration in mol/L.

Record COCCOCCOCCNC(=O)c1ccc(Nc2cc(Oc3ccc(NC(=O)Nc4cc(C(C)(C)C)cc(C(N)=O)c4OC)c4ccccc34)ccn2)cc1OC [Example 6] ; system GSK 3α (Homo sapiens (Human), UniProt P49840); pIC50 = 5.72

Case C#Cc1cc(Nc2cc(Oc3ccc(NC(=O)Nc4cc(C(C)(C)C)cc(NS(C)(=O)=O)c4OC)c4ccccc34)ccn2)ccc1C(=O)NCCN1CCOCC1 [Example 15] , GSK 3α (Homo sapiens (Human), UniProt P49840), pIC50 recorded as 5.55

Form field, pIC50 with GSK 3α (Homo sapiens (Human), UniProt P49840), item COc1cc(Nc2cc(Oc3ccc(NC(=O)Nc4cc(C(C)(C)C)cc(NS(C)(=O)=O)c4OC)c4ccccc34)ccn2)ccc1C(=O)NCCN1CCCC1 [17(q)] : 5.70

Tested system GSK 3α (Homo sapiens (Human), UniProt P49840); pIC50 recorded for COc1cc(Nc2cc(Oc3ccc(NC(=O)Nc4cc(C(C)(C)C)cc(NS(C)(=O)=O)c4OC)c4ccccc34)ccn2)ccc1S(=O)(=O)N(C)CCN1CCOCC1 [17(o)] was 5.48

Measured pIC50 for this entry COc1cc(Nc2cc(Oc3ccc(NC(=O)Nc4cc(C(C)(C)C)cc(NS(C)(=O)=O)c4OC)c4ccccc34)ccn2)ccc1C(=O)NCCN1CCCN(C)CC1 [17(f)] on GSK 3α (Homo sapiens (Human), UniProt P49840): 5.96

---

test: Pharmacokinetics and total colon distribution after single oral administration; format: in vivo, male C57BL/6 mice; details: male, C57BL/6, mouse, total colon tissue; mice, oral 5 mg/kg, 8 h; measured cpd = dosed cpd (1, 19, 47 as Na salt, 44 as NH4+ salt); read-out: total colon level
Kindly supply the reported concentration at 8 h values for the records listed here.

Lab book: concentration at 8 h of `COc1cc(Nc2cc(Oc3ccc(NC(=O)Nc4cc(C(C)(C)C)cc(NS(C)(=O)=O)c4OC)c4ccccc34)ccn2)cc(OC)c1C(=O)NCCOCCOCCOP(=O)(O)O` noted as 0 ng/g

# concentration at 8 h (molecule: `COc1cc(Nc2cc(Oc3ccc(NC(=O)Nc4cc(C(C)(C)C)cc(NS(C)(=O)=O)c4OC)c4ccccc34)ccn2)ccc1P(C)(=O)O` ) is 915 ng/g

---

experiment: Pharmacokinetics and total colon distribution after single oral administration; assay type: in vivo, male C57BL/6 mice; conditions: male, C57BL/6, mouse, blood; mice, 2 h; Ex. 16 measured after oral 5 mg/kg of Ex. 19 (Na salt); read-out: Mean blood concentration
property measured: concentration at 2 h (ng/mL)
Reply with just the number (in ng/mL).

Record `COc1cc(Nc2cc(Oc3ccc(NC(=O)Nc4cc(C(C)(C)C)cc(NS(C)(=O)=O)c4OC)c4ccccc34)ccn2)ccc1C(=O)NCCOCCOCCO` . Reported concentration at 2 h: 0.6

---

Assay: Pharmacokinetics and total colon distribution after single oral administration
Format: in vivo, male C57BL/6 mice
Details: male, C57BL/6, mouse, blood; mice, 12 h; Ex. 16 measured after oral 5 mg/kg of Ex. 19 (Na salt); read-out: Mean blood concentration
Method: Studies were conducted by Sai Life Sciences (Hinjewadi, Pune, India) to investigate the systemic pharmacokinetics and total colon tissue distribution of compounds of the invention. In particular, pharmacokinetic studies were carried out in male C57BL/6 mice following a single oral administration of the compound.
property measured: concentration at 12 h (ng/mL)
# number only, unit ng/mL dropped from output

Record `COc1cc(Nc2cc(Oc3ccc(NC(=O)Nc4cc(C(C)(C)C)cc(NS(C)(=O)=O)c4OC)c4ccccc34)ccn2)ccc1C(=O)NCCOCCOCCO` , field concentration at 12 h: 0

---

system: Jurkat cells; assay: Cell cytotoxicity assay (r); type: cell-based, human; settings: 24 hours, 20 μg/mL
Please go through the items and note down their % Viability at 20 μg/mL.
Just the number in %, nothing appended.

In plain terms, COc1cc(Nc2cc(Oc3ccc(NC(=O)Nc4cc(C(C)(C)C)cc(NS(C)(=O)=O)c4OC)c4ccccc34)ccn2)ccc1C(=O)NC(C)CN1CCN(C)CC1 (stereo not shown) has a documented % Viability at 20 μg/mL of 0.5

response.value for `COc1cc(Nc2cc(Oc3ccc(NC(=O)Nc4cc(C(C)(C)C)cc(NS(C)(=O)=O)c4OC)c4ccccc34)ccn2)ccc1C(=O)NCCOCCO` (field: % Viability at 20 μg/mL) = 0.5

Record `COc1cc(Nc2nccc(Oc3ccc(NC(=O)Nc4cc(C(C)(C)C)cc(NS(C)(=O)=O)c4OC)c4ccccc34)n2)ccc1C(=O)NCCOCCOCCO` . Reported % Viability at 20 μg/mL: 1.6

According to the records, this compound COc1cc(Nc2cc(Oc3ccc(NC(=O)Nc4cc(C(C)(C)C)cc(NS(C)(=O)=O)c4OC)c4ccccc34)ccn2)ccc1C(=O)NCCN1CCN(CCO)CC1 [17(z)] displays % Viability at 20 μg/mL of 2.0

Entry `COc1cc(Nc2nccc(Oc3ccc(NC(=O)Nc4cc(C(C)(C)C)cc(NS(C)(=O)=O)c4OC)c4ccccc34)n2)cc(OC)c1C(=O)NCCN1CCN(C)CC1` ; % Viability at 20 μg/mL = 4.5

For record `COc1cc(Nc2nccc(Oc3ccc(NC(=O)Nc4cc(C(C)(C)C)cc(NS(C)(=O)=O)c4OC)c4ccccc34)n2)ccc1C(=O)NCCCN1CCN(C)CC1` the listed % Viability at 20 μg/mL is 0.6

Form: compound = `COc1cc(Nc2cc(Oc3ccc(NC(=O)Nc4cc(C(C)(C)C)cc(C(=O)NCCO)c4OC)c4ccccc34)ccn2)ccc1C(=O)NCCN1CC[S+]([O-])CC1` ; % Viability at 20 μg/mL = 2.5

compound `COc1c(NC(=O)Nc2ccc(Oc3ccnc(Nc4ccc(C(=O)NCCCN5CCOCC5)c(O)c4)c3)c3ccccc23)cc(C(C)(C)C)cc1NS(C)(=O)=O` , % Viability at 20 μg/mL observed: 2.0

// sample `COc1cc(Nc2nccc(Oc3ccc(NC(=O)Nc4cc(C(C)(C)C)cc(NS(C)(=O)=O)c4OC)c4ccccc34)n2)ccc1C(=O)NCCC1CCN(C)CC1` , its % Viability at 20 μg/mL was 1.1

So, `COc1cc(Nc2cc(Oc3ccc(NC(=O)Nc4cc(C(C)(C)C)cc(NS(C)(=O)=O)c4OC)c4ccccc34)ccn2)ccc1C(=O)NCCC1(O)CCN(C)CC1` ? Its % Viability at 20 μg/mL was 0.3

What the record says about `COc1cc(Nc2cc(Oc3ccc(NC(=O)Nc4cc(C(C)(C)C)cc(NS(C)(=O)=O)c4OC)c4ccccc34)ccn2)cc(OC)c1C(=O)NCCN(C)C` : % Viability at 20 μg/mL is 1.5

What the record says about `COc1cc(Nc2cc(Oc3ccc(NC(=O)Nc4cc(C(C)(C)C)cc(NS(C)(=O)=O)c4OC)c4ccccc34)ccn2)ccc1C(=O)NCCN1CCN(C)CC1(C)C` : % Viability at 20 μg/mL is 0.6

Form field % Viability at 20 μg/mL, entry `COc1cc(Nc2cc(Oc3ccc(NC(=O)Nc4cc(C(C)(C)C)cc(NS(C)(=O)=O)c4OC)c4ccccc34)ccn2)ccc1C(=O)N[C@@H]1CCN(C)C1` : 0.7

Just so you know, measured % Viability at 20 μg/mL for `COc1cc(Nc2cc(Oc3ccc(NC(=O)Nc4cc(C(C)(C)C)cc(NS(C)(=O)=O)c4OC)c4ccccc34)ccn2)ccc1C(=O)NCCCCCN(C)C` came out at 0.1

Form field % Viability at 20 μg/mL, entry `COc1cc(Nc2cc(Oc3ccc(NC(=O)Nc4cc(C(C)(C)C)cc(NS(C)(=O)=O)c4OC)c4ccccc34)ccn2)ccc1S(=O)(=O)CC(CO)(CO)CO` : 9.8

Value of % Viability at 20 μg/mL reported for the compound `COc1cc(Nc2cc(Oc3ccc(NC(=O)Nc4cc(NS(C)(=O)=O)cc(C(C)(C)C)c4)c4ccccc34)ccn2)ccc1C(=O)NCCC1CCN(C)CC1` is 0.3

// sample `COc1cc(Nc2nccc(Oc3ccc(NC(=O)Nc4cc(C(C)(C)C)cc(NS(C)(=O)=O)c4OC)c4ccccc34)n2)ccc1C(=O)NCCN1CCN(C)CC1` , its % Viability at 20 μg/mL was 1.3

get_value(item= `COc1c(NC(=O)Nc2ccc(Oc3ccnc(Nc4ccc(C(=O)NCCN5CCN(C)CC5)c(N(C)C)c4)c3)c3ccccc23)cc(C(C)(C)C)cc1NS(C)(=O)=O` , readout=% Viability at 20 μg/mL) returns 2.0

Per the record, `COc1cc(Nc2cc(Oc3ccc(NC(=O)Nc4cc(NS(C)(=O)=O)cc(C(C)(C)C)c4)c4ccccc34)ccn2)ccc1C(=O)NCCN1CCN(C)CC1` has % Viability at 20 μg/mL of 14.0
